Tested on: Pseudomonas aeruginosa
Test: Antibacterial activity against Pseudomonas aeruginosa ATCC 27853 after 16 to 24 hrs by CLSI method
Format: functional
Examples of compounds with documented MIC follow.
READOUT NAME: MIC (µg/mL)

# STRUCTURE SMILES, TESTED TARGET, COMPARISON SYMBOL, READING
measured = [
    ("O=c1cc(NCCCN2CCN(c3nccc4ccc(Cl)cc34)CC2)c2ccccc2o1", "Pseudomonas aeruginosa", "=", 8),
    ("O=c1cc(NCCCN2CCN(c3nc(F)cc4ccccc34)CC2)c2ccccc2o1", "Pseudomonas aeruginosa", "=", 4),
    ("O=c1cc(NCCCN2CCN(c3nccc4ccccc34)CC2)c2ccccc2o1", "Pseudomonas aeruginosa", ">", 32),
    ("COc1ccc2ccnc(N3CCN(CCCNc4cc(=O)oc5ccccc45)CC3)c2c1", "Pseudomonas aeruginosa", "=", 8),
    ("O=c1nc(NC[C@@H](O)CN2CCN(c3nccc4ccc(F)cc34)CC2)c2ccccc2o1", "Pseudomonas aeruginosa", ">", 8),
]

----------
Assay: Selectivity ratio, ratio of IC50 for human HEK293 cells to MIC for Staphylococcus aureus ATCC 29213
Type: toxicity
Conditions: read-out: Selectivity Index
Examples of molecules with documented selectivity ratio follow.

# MOLECULE, selectivity ratio
records = [
    ("O=c1nc(NCC(O)CN2CCN(c3nccc4ccc(F)cc34)CC2)c2cc(F)ccc2o1 (racemic)", 381),
    ("O=c1nc(NCC(O)CN2CCN(c3nc(F)cc4ccc(F)cc34)CC2)c2cc(F)ccc2o1 (racemic)", "> 433"),
    ("COc1ccc2cc(F)nc(N3CCN(CC(O)CNc4cc(=O)oc5ccc(F)cc45)CC3)c2c1 (racemic)", "> 5500"),
]

----------
Biological target: DNA gyrase (Escherichia coli, UniProt P0AES4+P0AES6)
Test: Inhibition of Escherichia coli DNA gyrase assessed as reduction in enzyme-mediated supercoiling of relaxed plasmid by fluorescence polarization assay
Format: protein-complex assay
pIC50: −log10 of the molar value.

# COMPOUND, pIC50
measured = [
    ("N[C@@H](Cn1c(=O)cnc2ccc(F)cc21)C1CCC(NCc2ncc3c(n2)OCC(=O)N3)CC1 (stereo partly specified)", 7.70),
]

----------
Test system: Enterococcus faecalis
Assay: Antibacterial activity against vancomycin and teicoplanin-resistant Enterococcus faecalis APV 00409 after 16 to 24 hrs by broth microdilution method
Assay type: functional
READOUT NAME: MIC (µg/mL)

# MOLECULE, TESTED TARGET, READOUT NAME, COMPARISON SYMBOL, READING
measured = [
    ("O=C(O)c1cn(C2CC2)c2cc(N3CCNCC3)c(F)cc2c1=O", "Enterococcus faecalis", "MIC", "=", 32),
    ("O=c1nc(NCC(O)CN2CCN(c3nc(F)cc4ccc(F)cc34)CC2)c2cc(F)ccc2o1 (racemic)", "Enterococcus faecalis", "MIC", "=", 0.06),
    ("CN[C@H](CC(C)C)C(=O)N[C@H]1C(=O)N[C@@H](CC(N)=O)C(=O)N[C@H]2C(=O)N[C@H]3C(=O)N[C@H](C(=O)N[C@H](C(=O)O)c4cc(O)cc(O)c4-c4cc3ccc4O)[C@H](O)c3ccc(c(Cl)c3)Oc3cc2cc(c3O[C@@H]2O[C@H](CO)[C@@H](O)[C@H](O)[C@H]2O[C@H]2C[C@](C)(N)[C@H](O)[C@H](C)O2)Oc2ccc(cc2Cl)[C@H]1O", "Enterococcus faecalis", "MIC", ">", 128),
    ("O=c1nc(NCC(O)CN2CCN(c3nccc4ccc(F)cc34)CC2)c2cc(F)ccc2o1 (racemic)", "Enterococcus faecalis", "MIC", "=", 0.12),
]

----------
System: HepG2
Experiment: Cytotoxicity against human HepG2 cells after 48 hrs by Alamar blue staining-based fluorometric analysis
Assay type: cell-based
Details: HepG2, 48 h
Examples of compounds with documented IC50 follow.

# COMPOUND, TESTED TARGET, UNIT STRING, IC50
data = [
    ("O=c1nc(NCC(O)CN2CCN(c3nccc4ccc(F)cc34)CC2)c2cc(F)ccc2o1 (racemic)", "HepG2", "µM", 55),
    ("COc1ccc2cc(F)nc(N3CCN(CC(O)CNc4cc(=O)oc5ccc(F)cc45)CC3)c2c1 (racemic)", "HepG2", "µM", 25),
    ("O=c1nc(NCC(O)CN2CCN(c3nc(F)cc4ccc(F)cc34)CC2)c2cc(F)ccc2o1 (racemic)", "HepG2", "µM", 31),
]

----------
Examples of molecules with documented IC50 follow.
Biological target: DNA topoisomerase 4 subunit A (Staphylococcus aureus, UniProt P0C1U9)
Sequence (P0C1U9 whole entry): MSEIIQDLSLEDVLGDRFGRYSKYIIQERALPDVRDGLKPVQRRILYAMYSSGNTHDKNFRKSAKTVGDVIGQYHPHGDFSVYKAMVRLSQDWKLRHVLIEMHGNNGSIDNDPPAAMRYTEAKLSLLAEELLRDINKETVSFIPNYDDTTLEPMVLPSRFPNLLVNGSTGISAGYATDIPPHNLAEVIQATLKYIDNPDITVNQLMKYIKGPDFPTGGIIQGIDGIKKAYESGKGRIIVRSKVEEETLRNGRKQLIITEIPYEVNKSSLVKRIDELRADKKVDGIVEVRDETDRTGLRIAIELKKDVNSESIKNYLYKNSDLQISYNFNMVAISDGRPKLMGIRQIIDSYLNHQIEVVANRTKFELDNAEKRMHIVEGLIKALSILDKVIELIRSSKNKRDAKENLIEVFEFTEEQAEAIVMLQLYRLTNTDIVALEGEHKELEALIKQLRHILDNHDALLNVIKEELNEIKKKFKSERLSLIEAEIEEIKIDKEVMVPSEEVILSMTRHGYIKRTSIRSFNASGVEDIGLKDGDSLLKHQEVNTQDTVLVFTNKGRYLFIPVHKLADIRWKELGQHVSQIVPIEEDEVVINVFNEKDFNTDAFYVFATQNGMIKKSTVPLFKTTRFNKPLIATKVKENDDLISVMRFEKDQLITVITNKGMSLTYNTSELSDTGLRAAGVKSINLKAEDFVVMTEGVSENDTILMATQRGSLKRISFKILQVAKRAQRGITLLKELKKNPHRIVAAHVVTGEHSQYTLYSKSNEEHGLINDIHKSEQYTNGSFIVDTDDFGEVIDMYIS
Assay: Inhibition of Staphylococcus aureus ATCC 29213 DNA topoisomerase 4 subunit ParC assessed as reduction in decatenation of kinetoplast DNA incubated for 30 mins by ethidium bromide staining based gel electrophoresis method

# MOLECULE, COMPARISON SYMBOL, IC50 [µM]
records = [
    ("O=c1cc(CC(O)CCN2CCN(c3nccc4ccc(F)cc34)CC2)c2ccccc2o1 (racemic)", "=", 1.7),
    ("O=c1cc(NCCCN2CCN(c3nccc4ccc(F)cc34)CC2)c2c(o1)CCOC2", "=", 4),
    ("O=c1cc(NCCCN2CCN(c3nccc4ccc(F)cc34)CC2)c2c(o1)CCNC2", ">", 100),
    ("O=c1cc(NCCCN2CCN(c3nccc4ccc(F)cc34)CC2)c2c(o1)CCS(=O)(=O)C2", "=", 2.1),
    ("O=c1cc(OCCCN2CCN(c3nccc4ccccc34)CC2)c2ccccc2o1", ">", 100),
    ("O=C1CN(c2nccc3ccccc23)CCN1CCCNc1cc(=O)oc2ccccc12", ">", 100),
    ("O=c1cc(NCC(O)CN2CCN(c3nccc4ncccc34)CC2)c2cc(F)ccc2o1 (racemic)", "=", 0.3),
    ("N#Cc1ccc2ccnc(N3CCN(CCCNc4cc(=O)oc5ccccc45)CC3)c2c1", "=", 5.1),
    ("Cc1cc2ccccc2c(N2CCN(CCCNc3cc(=O)oc4ccccc34)CC2)n1", "=", 7.5),
    ("O=c1cc(NCCCN2CCN(c3nccc4ccccc34)CC2)c2cc(F)ccc2o1", "=", 3.1),
]

----------
System: Enterococcus faecalis
Assay: Antibacterial activity against vancomycin-sensitive Enterococcus faecalis APV 00623 after 16 to 24 hrs by broth microdilution method
Format: functional
READOUT NAME: MIC (µg/mL)

# MOLECULE, TESTED TARGET, READING
data = [
    ("O=c1nc(NCC(O)CN2CCN(c3nc(F)cc4ccc(F)cc34)CC2)c2cc(F)ccc2o1 (racemic)", "Enterococcus faecalis", 0.12),
    ("O=C(O)c1cn(C2CC2)c2cc(N3CCNCC3)c(F)cc2c1=O [CIPROFLOXACIN]", "Enterococcus faecalis", 2),
    ("O=c1nc(NCC(O)CN2CCN(c3nccc4ccc(F)cc34)CC2)c2cc(F)ccc2o1 (racemic)", "Enterococcus faecalis", 0.5),
    ("CN[C@H](CC(C)C)C(=O)N[C@H]1C(=O)N[C@@H](CC(N)=O)C(=O)N[C@H]2C(=O)N[C@H]3C(=O)N[C@H](C(=O)N[C@H](C(=O)O)c4cc(O)cc(O)c4-c4cc3ccc4O)[C@H](O)c3ccc(c(Cl)c3)Oc3cc2cc(c3O[C@@H]2O[C@H](CO)[C@@H](O)[C@H](O)[C@H]2O[C@H]2C[C@](C)(N)[C@H](O)[C@H](C)O2)Oc2ccc(cc2Cl)[C@H]1O [VANCOMYCIN]", "Enterococcus faecalis", 2),
]

----------
Target: DNA topoisomerase 4 subunit A (Staphylococcus aureus, UniProt P0C1U9)
Assay: Inhibition of Staphylococcus aureus ATCC 29213 DNA topoisomerase 4 subunit ParC assessed as reduction in decatenation of kinetoplast DNA incubated for 30 mins by ethidium bromide staining based gel electrophoresis method
Examples of compounds with documented log10(IC50) follow.
READOUT NAME: log10(IC50) (log10 of the value in µM)

# COMPOUND, READING
rows = [
    ("O=c1cc(NCCCN2CCN(c3nccc4ccccc34)CC2)c2c(o1)CCCC2", 1.72),
    ("O=c1cc(NCCCN2CCN(c3nccc4ncccc34)CC2)c2ccccc2o1", 1.92),
    ("O=c1cc(NCCCN2CCN(c3nccc4ccc(F)cc34)CC2)c2c(o1)CCSC2", 1.18),
    ("O=c1cc(NC[C@H](O)CN2CCN(c3nccc4ccc(F)cc34)CC2)c2ccccc2o1", 0.23),
    ("Cc1ccc2ccnc(N3CCN(CCCNc4cc(=O)oc5ccccc45)CC3)c2c1", 1.72),
    ("O=c1cc(N[C@H]2C[C@H](N3CCN(c4nccc5ccccc45)CC3)C2)c2ccccc2o1", 1.06),
    ("O=c1cc(NCCCN2CCN(c3nc(F)cc4ccccc34)CC2)c2ccccc2o1", 0.85),
    ("O=c1cc(NCCCN2CCN(c3nc(Cl)cc4ccccc34)CC2)c2ccccc2o1", 1.01),
    ("O=c1nc(NC[C@@H](O)CN2CCN(c3nccc4ccc(F)cc34)CC2)c2ccccc2o1", -0.52),
    ("O=c1nc(NCC(O)CN2CCN(c3nccc4ccc(F)cc34)CC2)c2cc(F)ccc2o1 (racemic)", -1.30),
    ("COc1cc2ccccc2c(N2CCN(CCCNc3cc(=O)oc4ccccc34)CC2)n1", 2.14),
    ("CN(C)c1ccc2ccnc(N3CCN(CCCNc4cc(=O)oc5ccccc45)CC3)c2c1", 1.05),
    ("O=c1nc(NCC(O)CN2CCN(c3nc(F)cc4ccc(F)cc34)CC2)c2cc(F)ccc2o1 (racemic)", -1.40),
]
